System: Calu-3
Assay: cell viability relative to DMSO; higher = less toxic
Details: 72 h; 1000 nM
PARAMETER: cell viability (%)
# unit: % | format: bare number

Observe how each entry below is paired with its result.
MOLECULE	ASSAY_TARGET	READOUT_UNITS	cell viability
COc1cc2c(cc1OC)-c1cc3nc4ccccc4nc3n1C(C)(C)C2	Calu-3	%	95.2
CO[C@H]1/C=C/O[C@@]2(C)Oc3c(C)c(O)c4c(O)c(c(/C=N/N5CCN(C6CCCC6)CC5)c(O)c4c3C2=O)NC(=O)/C(C)=C\C=C\[C@H](C)[C@H](O)[C@@H](C)[C@@H](O)[C@@H](C)[C@H](OC(C)=O)[C@@H]1C	Calu-3	%	111
COCc1c(-c2ccc(NC(=O)Nc3cc(C(F)(F)F)ccc3F)c(F)c2)c2c(N)ncnn2c1CN1CCOCC1	Calu-3	%	72.1
CC(NC(=O)c1ccccc1/N=C/c1c(O)ccc2ccccc12)c1ccccc1 (stereo not drawn)	Calu-3	%	112

Prompt line: Reported cell viability for O=P(O)(O)C(O)(Cc1cccnc1)P(=O)(O)O [risedronate] : what is it?
Response line: 99.2

Prompt line: What about this molecule? CN1C(=O)N(c2cc(Cl)cc(Cl)c2)C(=O)[C@@]1(C)Cc1ccc(Br)cc1
Response line: 105

Prompt line: What about this molecule? CN1CCN(c2ccc(/C=C(\C#N)c3ccccc3Br)cc2)CC1
Response line: 100

Prompt line: What about this molecule? CC(CCc1ccc(O)cc1)NCCc1ccc(O)c(O)c1 (stereo not drawn)
Response line: 96.9

###

Test system: Caco-2
Test: cell viability relative to DMSO; higher = less toxic
Conditions: 72 h; 1 nM
PARAMETER: cell viability

COMPOUND	MEASUREMENT
Nc1c2c(nc3c1CCC3)CCCC2	84.5%
c1cc(Nc2cc(C3CC3)n[nH]2)nc(Nc2ccc3[nH]cnc3c2)n1	88.9%

Prompt line: Reported cell viability for COc1cc2c(cc1OC)-c1cc3nc4ccccc4nc3n1C(C)(C)C2 : what is it?
Response line: 97.9%

Prompt line: What about this compound? CC1=NN(c2ccc(C(=O)O)cc2)C(=O)C1=Cc1ccc(-c2cc(C)c(C)cc2[N+](=O)[O-])o1
Response line: 87.3%

Prompt line: What about this compound? CC[N+](C)(CC)CC(=O)Nc1c(C)cccc1C [N-methyllidocaine-iodide]
Response line: 88%

Prompt line: What about this compound? CCCN1CCCC[C@H]1C(=O)Nc1c(C)cccc1C
Response line: 90.8%

Prompt line: What about this compound? O=C(COc1ccc(Cl)cc1)N[C@H]1CC[C@H](NC(=O)COc2ccc(Cl)cc2)CC1
Response line: 98.5%

Prompt line: What about this compound? CC(C)[N+](C)(CCOC(=O)C1c2ccccc2Oc2ccccc21)C(C)C
Response line: 86.1%

Prompt line: What about this compound? NNCCc1ccccc1
Response line: 88.4%

Prompt line: What about this compound? COc1cc2c(cc1OC)[C@H](C)NCC2 [Isoquinoline,-6,7-dimethoxy-1-methyl-1,2,3,4-tetrahydro,]
Response line: 92.5%

Prompt line: What about this compound? CCOc1ccc(NC(C)=O)cc1
Response line: 105%

Prompt line: What about this compound? Cc1cc2c(C(C)C)c(O)c(O)c(C=O)c2c(O)c1-c1c(C)cc2c(C(C)C)c(O)c(O)c(C=O)c2c1O
Response line: 101%

Prompt line: What about this compound? N#Cc1cnc2cnc(NCc3cccnc3)cc2c1Nc1ccc(F)c(Cl)c1
Response line: 93.3%

Prompt line: What about this compound? CCNC(=O)[C@@H]1CCCN1C(=O)[C@H](CCCNC(=N)N)NC(=O)[C@H](CC(C)C)NC(=O)[C@@H](CC(C)C)NC(=O)[C@H](Cc1ccc(O)cc1)NC(=O)[C@H](CO)NC(=O)[C@H](Cc1c[nH]c2ccccc12)NC(=O)[C@H](Cc1c[nH]cn1)NC(=O)[C@@H]1CCC(=O)N1 [leuprolide]
Response line: 107%

Prompt line: What about this compound? Oc1ccc(/C=C/c2cc(O)cc(O)c2)cc1
Response line: 93.3%

Prompt line: What about this compound? N#Cc1cc(-c2n[nH]c(-c3ccncc3)n2)ccn1
Response line: 98.2%

Prompt line: What about this compound? O=S1(=O)OC(c2ccc(O)cc2)(c2ccc(O)cc2)c2ccccc21
Response line: 102%
